System: VCAM-1 gene expression
Test: TNF-α induced VCAM-1 gene expression in primary rat aortic smooth muscle cells
Format: cell-based
Conditions: RASM passage 4, media with FBS, 24 h pretreatment, TNF-α 10 ng/ml, read-out: IC50 for proinflammatory gene expression inhibition for VCAM-1
Description: RASM cells and treatment. Rat aortic smooth muscle (RASM) cells were isolated from adult 180 g male Sprague-Dawley rats and provided by the Cell and Molecular Core Facility in the Department of Pharmacology at LSUHSC-NO. Isolated RASM cells were grown in M-199 media containing 10% fetal bovine serum (Gibco), 100 units/mL penicillin, and 100 µg/mL streptomycin, and incubated at 37° C. in 5% CO2. Cells for all assays were used between passages 3 and 5. […] RNA isolation and Quantitative Realtime-PCR. […]
Quantity measured: IC50 (pM)
The answer is to be given in pM; state only the numeric part.

So for COc1cc(C[C@@H](C)N)c(OC)cc1I [(R)-DOI] , the logged IC50 turned out to be 12
